Test: Bi-directional Caco-2 permeability (transport) assay
Type: in vitro ADME, human
Details: Caco-2, OCT 50 μM; MRP2 and P-gp inhibition
test-readout: Papp B→A (×10⁻⁶ cm/s)
Numbers only, in ×10⁻⁶ cm/s.

Documented Papp B→A of C[C@@H](O)[C@@H]1NC(=O)[C@H](CCCCN)NC(=O)[C@@H](Cc2c[nH]c3ccccc23)NC(=O)[C@H](Cc2ccccc2)NC(=O)[C@@H](NC(=O)[C@H](N)Cc2ccccc2)CSSC[C@@H](C(=O)N[C@H](CO)[C@@H](C)O)NC1=O [OCT, octreotide] : 0.981

----------
Assay: Bi-directional Caco-2 permeability (transport) assay
Type: in vitro ADME, human
Conditions: Caco-2, OCT 1 μM; Control (no inhibitor)
test-readout: Papp B→A

Documented Papp B→A of C[C@@H](O)[C@@H]1NC(=O)[C@H](CCCCN)NC(=O)[C@@H](Cc2c[nH]c3ccccc23)NC(=O)[C@H](Cc2ccccc2)NC(=O)[C@@H](NC(=O)[C@H](N)Cc2ccccc2)CSSC[C@@H](C(=O)N[C@H](CO)[C@@H](C)O)NC1=O [OCT, octreotide] : 0.021 ×10⁻⁶ cm/s

----------
Assay: Bi-directional Caco-2 permeability (transport) assay
Assay type: in vitro ADME, human
Settings: Caco-2, OCT 10 μM; MRP2 inhibition (probenecid 1 mM)
test-readout: Papp A→B (×10⁻⁶ cm/s)
Numbers only, in ×10⁻⁶ cm/s.

Documented Papp A→B of C[C@@H](O)[C@@H]1NC(=O)[C@H](CCCCN)NC(=O)[C@@H](Cc2c[nH]c3ccccc23)NC(=O)[C@H](Cc2ccccc2)NC(=O)[C@@H](NC(=O)[C@H](N)Cc2ccccc2)CSSC[C@@H](C(=O)N[C@H](CO)[C@@H](C)O)NC1=O [OCT, octreotide] : 0.149

----------
Experiment: Bi-directional Caco-2 permeability (transport) assay
Format: in vitro ADME, human
Details: Caco-2, OCT 50 μM; MRP2 and P-gp inhibition
test-readout: Papp A→B
Quick note: number first, unit second.

Documented Papp A→B of C[C@@H](O)[C@@H]1NC(=O)[C@H](CCCCN)NC(=O)[C@@H](Cc2c[nH]c3ccccc23)NC(=O)[C@H](Cc2ccccc2)NC(=O)[C@@H](NC(=O)[C@H](N)Cc2ccccc2)CSSC[C@@H](C(=O)N[C@H](CO)[C@@H](C)O)NC1=O [OCT, octreotide] : 1.73 ×10⁻⁶ cm/s

----------
Test: Bi-directional Caco-2 permeability (transport) assay
Format: in vitro ADME, human
Conditions: Caco-2, OCT 50 μM; MRP2 inhibition (probenecid 1 mM)
test-readout: Papp A→B (×10⁻⁶ cm/s)
Answers are plain numbers, in ×10⁻⁶ cm/s.

Documented Papp A→B of C[C@@H](O)[C@@H]1NC(=O)[C@H](CCCCN)NC(=O)[C@@H](Cc2c[nH]c3ccccc23)NC(=O)[C@H](Cc2ccccc2)NC(=O)[C@@H](NC(=O)[C@H](N)Cc2ccccc2)CSSC[C@@H](C(=O)N[C@H](CO)[C@@H](C)O)NC1=O [OCT, octreotide] : 0.353

----------
Assay: Bi-directional Caco-2 permeability (transport) assay
Assay type: in vitro ADME, human
Details: Caco-2, OCT 1 μM; MRP2 inhibition (probenecid 1 mM)
test-readout: Papp B→A (×10⁻⁶ cm/s)
One number for each entry, in ×10⁻⁶ cm/s.

Documented Papp B→A of C[C@@H](O)[C@@H]1NC(=O)[C@H](CCCCN)NC(=O)[C@@H](Cc2c[nH]c3ccccc23)NC(=O)[C@H](Cc2ccccc2)NC(=O)[C@@H](NC(=O)[C@H](N)Cc2ccccc2)CSSC[C@@H](C(=O)N[C@H](CO)[C@@H](C)O)NC1=O [OCT, octreotide] : 0.006
